Listing of entries alongside the reported binding score.
Molecular target: SARS-CoV-2 spike RBD (WT) (Severe acute respiratory syndrome …, UniProt P0DTC2)
Assay: ELISA
Parameters: unit not given here
Give your answer as a number; write no unit.

// known answers, use as guide
C2708 (antibody, V domains shown) VH: EVQLVESGGVVVQPGGSLRLSCAASGFTFDDYAMHWVRQAPGKGLEWVSLISWDGGSTYYADSVKGRFTISRDNSKNSLYLQMNSLRAEDTALYYCAKDIEGGSGWSFDYWGQGTLVTVSS VL: QSALTQPPSVSGSPGQSVTISCTGTSSDVGSYNRVSWYQQPPGTAPKLMIYEVSNRPSGVPDRFSGSKSGNTASLTISGLQAEDEADYYCSSYTSSSTVVFGGGTKLTVL :: 7040
D155 (antibody, V domains shown) VH: QLQLQESGPGLVKPSETLSLTCTVSGGSISSSSYYWGWIRQPPGKGLEWIGSIYYSGSTYYNPSLKSRVTISVDTSKNQFSLKLSSVTAADTAVYYCARQPYYYDSSGINRAFDIWGQGTMVTVSS VL: QSVLTQPRSVSGSPGQSVTISCTGTSSDVGGYNYVSWYQQHPGKAPKLMIYDVSKRPSGVPDRFSGSKSGNTASLTISGLQAEDEADYYCCSYAGTVVFGGGTKLTVL :: 1000
D002 (antibody, V domains shown) VH: EVQLVQSGAEVKKPGESLKISCKASGYNFTTSWIGWVRQMPGKGLEWMGIIYPGDFDTTYSPSFQGQVTISADKSISTAYLQWSSLKASDTAMYYCARVGPTAGTDGYNYLDWYFDLWGRGTLVTVSS VL: SYELTQPPSVSVSPGQTARITCSGDALPKQFSYWYQQKPGQAPVLVIYKDNERPSGIPERFSGSSSGTTVTLTISGVQAEDEADYYCQSADSISWVFGGGTKLTVL :: 3640

Reported binding score, binder D139 (antibody, V domains shown) VH: QVQLVESGGGVVQPGRSLRLSCAASGFTFSSYGMHWVRQAPGKGLEWVAVISYDGSNKYYADSVKGRFTISRDNSKNTLYLQMNSLRAEDTAVYYCAKMGGGVYCSGGSCYSSYFDYWGQGTLVTVSS VL: AIQLTQSPSSLSASVGDRVTITCRASQGISSALAWYQQKPGKAPKLLIYDASSLESGVPSRFSGSGSGTDFTLTISSLQPEDFATYYCQQFNNYLPLTFGGGTKVEIK : ____
311

Request the reported binding score associated with C2731 (antibody, V domains shown) VH: QVQLQQWGAGLLKPSETLSRTCAVYGGSFSGYYWSWIRQSPGKGLEWIGEINHRGSTNYNPSLKSRVTISVDTSKNQLSLELRSVTAADTAVYYCARSPGWTTVTRPFDYWGQGALVTVSS VL: EIVLTQSPGTLSLSPGERATLSCRASQSVSSNYLAWYQQKPGQAPRLLVYGASNRATGIPDRFSGSGSGTDFTLTISRLEPEDFAVFYCQQYSSSPVTFGQGTRLEIK
4400

Numbers sourced from paper PMC9876794.
